tested on: Rattus norvegicus; test: Antiinflammatory activity against carrageenan-induced paw edema in Wistar rat at 100 mg/kg, po dose administered 1 hr before carrageenan challenge assessed after 3 hrs; assay type: functional

- lineNotation: "CCN(CC)C(=O)c1c(NCC(OC)OC)c2cccnc2n2c(C(C)C)nnc12"
  resultUnit: "%"
  inhibition in vivo at 100 mg/kg: 0
- lineNotation: "CCNc1c(C(=O)N(CC)CC)c2nnc(C(C)C)n2c2ncccc12"
  resultUnit: "%"
  inhibition in vivo at 100 mg/kg: 63
- lineNotation: "CC(C)CNc1c(C(=O)N2CCCC2)c2nnc(C(C)C)n2c2ncccc12"
  resultUnit: "%"
  inhibition in vivo at 100 mg/kg: 0
- lineNotation: "CCN(CC)C(=O)c1c(N2CCN(C)CC2)c2cccnc2n2c(-c3ccccc3)nnc12"
  resultUnit: "%"
  inhibition in vivo at 100 mg/kg: 0
- lineNotation: "CC(C)c1nnc2c(C(=O)N3CCCC3)c(N3CCN(C)CC3)c3cccnc3n12"
  resultUnit: "%"
  inhibition in vivo at 100 mg/kg: 0
- lineNotation: "CCN(CC)C(=O)c1c(N2CCN(C)CC2)c2ccccc2n2cnnc12"
  resultUnit: "%"
  inhibition in vivo at 100 mg/kg: 0
- lineNotation: "CCOc1c(C(=O)N(CC)CC)c2nnc(C(C)C)n2c2ncccc12"
  resultUnit: "%"
  inhibition in vivo at 100 mg/kg: 10
- lineNotation: "CCN(CC)C(=O)c1c(N2CCN(C)CC2)c2cccnc2n2cnnc12"
  resultUnit: "%"
  inhibition in vivo at 100 mg/kg: 0
